# target.or.system: human KHK-C (Homo sapiens (Human), UniProt P50053)
# Sequence (P50053 whole entry): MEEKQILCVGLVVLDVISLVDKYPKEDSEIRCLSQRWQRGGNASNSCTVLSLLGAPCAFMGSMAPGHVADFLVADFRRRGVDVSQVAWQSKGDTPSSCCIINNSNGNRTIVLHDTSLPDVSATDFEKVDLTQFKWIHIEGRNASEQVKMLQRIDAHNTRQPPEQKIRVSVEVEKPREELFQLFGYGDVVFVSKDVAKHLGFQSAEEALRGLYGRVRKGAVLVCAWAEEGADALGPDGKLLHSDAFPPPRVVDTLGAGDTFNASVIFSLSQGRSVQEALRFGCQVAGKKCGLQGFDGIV
# protocol.summary: KHK Biochemical Assay (IC50), ADP-Glo, KHK-C
# measurement.parameters: ADP-Glo; average of at least two separate assays
experimental.readout: IC50 (nM)

Some entries whose results are on file:
compound: C[C@H]1CCN1c1nc2c(c(-c3cccc(CC(N)=O)c3)n1)CCC2
unit.of.measure: nM
IC50: 67.8
--
compound: C[C@H]1CCN1c1nc2c(c(-c3ccc4nc(O)ccc4c3)n1)CCC2
unit.of.measure: nM
IC50: 49.8
--
compound: C[C@H]1[C@H](O)CN1c1nc(-c2ccc3c(c2)[S@@](=N)(=O)CCO3)c2c(n1)C(F)(F)CC2 (single isomer, unassigned)
unit.of.measure: nM
IC50: 5
--
compound: C[C@H]1CCN1c1nc2c(c(-c3cccc([C@H]4C[C@@H]4c4nn[nH]n4)c3)n1)CCC2 (relative stereo)
unit.of.measure: nM
IC50: 44.7
--
compound: C[C@@H]1Oc2cc(-c3nc(N4CC[C@@H]4C)nc4c3CCC4)ccc2[C@@H]1NS(C)(=O)=O
unit.of.measure: nM
IC50: 10.5

[P] C[C@H]1[C@H](O)CN1c1nc(-c2ccc3c(c2)[S@](=N)(=O)CCO3)c2c(n1)C(F)(F)CC2 (single isomer, unassigned)
[Q] C[C@H]1CCN1c1nc2c(c(-c3cscn3)n1)CCC2
Select one. Lower IC50: P or Q Refer to your chosen entry by its label in the reply.
P

[I] COc1cc(S(=N)(=O)c2cccc(-c3nc(N4CC[C@@H]4C)nc4c3CCC4)c2)ccc1C#N (stereo partly shown)
[II] Cc1ncc(-c2nc(N3CC[C@@H]3C)nc3c2CCC3)s1
Select the item with the higher value of IC50 from the options I and II listed. Refer to your chosen entry by its label in the reply.
I
(I: 186 nM, II: 64.5 nM)

[A] C[C@H]1CCN1c1nc2c(c(-c3ccc4c(=O)[nH]ccc4c3)n1)CCC2
[B] C[C@H]1CCN1c1nc2c(c(-c3cccc(C(N)=O)c3)n1)CCC2
Select the item with the higher value of IC50 from the options A and B listed. Refer to your chosen entry by its label in the reply.
B

[I] CC(=O)Nc1cc(-c2nc(N3C[C@@H](O)[C@@H]3C)nc3c2CCC3(F)F)ccc1C(N)=O
[II] C[C@H]1CCN1c1nc2c(c(-c3cccc(CN4CCOCC4)c3)n1)CCC2
Select the item with the higher value of IC50 from the options I and II listed. Refer to your chosen entry by its label in the reply.
II

====

# target.or.system: human KHK-C (Homo sapiens (Human))
# protocol.summary: KHK Biochemical Assay (IC50), ADP-Glo, KHK-C
# measurement.parameters: ADP-Glo; average of at least two separate assays
experimental.readout: IC50 (nM)

smiles.representation: C[C@H]1CCN1c1nc2c(c(-c3cccc(C(=O)NCCC(=O)O)c3)n1)CCC2
IC50 (nM): 90.3

smiles.representation: C[C@@H]1CN(c2nc3c(c(-c4ccc(C(N)=O)cc4)n2)CCC3)[C@H]1C
IC50 (nM): 126

====

# target.or.system: human KHK-C (Homo sapiens (Human), UniProt P50053)
# protocol.summary: KHK Biochemical Assay (IC50), ADP-Glo, KHK-C
# measurement.parameters: ADP-Glo; average of at least two separate assays
experimental.readout: IC50 (nM)

Some entries whose results are on file:
molecule: C[C@H]1[C@H](F)CN1c1nc2c(c(-c3cccc(CNS(C)(=O)=O)c3)n1)CCC2
unit.of.measure: nM
reported.value: 16.4
//
molecule: C[C@H]1CCN1c1nc(-c2ccc(C3(N)COC3)cc2)c2c(n1)C(F)(F)CC2
unit.of.measure: nM
reported.value: 0.9
//
molecule: C[C@H]1CCN1c1nc2c(c(-c3ccc(CN(C)C)cc3)n1)CCC2
unit.of.measure: nM
reported.value: 20
//
molecule: NS(=O)(=O)c1cccc(-c2nc(N3CC[C@@H]4[C@H](O)C[C@@H]43)nc3c2CCC3)c1 (racemic)
unit.of.measure: nM
reported.value: 957
//
molecule: NS(=O)(=O)c1cccc(-c2nc(N3CC[C@@H]3CO)nc3c2CCC3)c1
unit.of.measure: nM
reported.value: 93
//
molecule: C[C@H]1CCN1c1nc2c(c(-c3ccc4[nH]cnc4c3)n1)CCC2
unit.of.measure: nM
reported.value: 18.9
//
molecule: C[C@H]1[C@H](O)CN1c1nc2c(c(-c3ccc4c(c3)CN(C)C4=O)n1)CCC2
unit.of.measure: nM
reported.value: 219
//
molecule: C[C@H]1[C@H](O)CN1c1nc2c(c(-c3ccc(C4(N)COC4)cc3)n1)CCC2
unit.of.measure: nM
reported.value: 10.1

[1] C[C@H]1CCN1c1nc2c(c(-c3ccc4c(c3)CC(C(F)(F)F)C4NS(C)(=O)=O)n1)CCC2 (some centres unmarked)
[2] C[C@H]1CCN1c1nc2c(c(-c3ccc4c(c3)CC(CC(=O)O)C4)n1)CCC2 (some centres unmarked)
Select the item with the higher value of IC50 from the options 1 and 2 listed. Refer to your chosen entry by its label in the reply.
1
(1: 733 nM, 2: 89.9 nM)

[1] C[C@H]1[C@H](O)CN1c1nc2c(c(-c3ccc4c(c3)CNC4=O)n1)CCC2
[2] C[C@H]1CCN1c1nc2c(c(-c3cccc(CN4CCCS4(=O)=O)c3)n1)CCC2
[3] COc1ccc(-c2nc(N3CC[C@@H]3C)nc3c2CCC3)cc1S(=N)(=O)c1ccc(C#N)cc1C (some centres unmarked)
[4] C[C@H]1CCN1c1nc2c(c(-c3ccccc3)n1)CCC2
Sort low-to-high on IC50, please. Arrange the labels as the request states and list them.
2, 3, 1, 4
(2: 18.9 nM, 3: 46.1 nM, 1: 86.7 nM, 4: 242 nM)

[P] C[C@H]1CCN1c1nc2c(c(-c3cnn(C)c3)n1)CCC2
[Q] C[C@H]1CCN1c1nc2c(c(-c3ccc4c(c3)S(=O)(=O)NC4=O)n1)CCC2
[R] C[C@H]1CCN1c1nc2c(c(-c3cc(C(N)=O)cc([N+](=O)[O-])c3)n1)CCC2
Sort low-to-high on IC50, please. Arrange the labels as the request states and list them.
Q, P, R
(Q: 38.6 nM, P: 66.5 nM, R: 247 nM)

====

# target.or.system: human KHK-C (Homo sapiens (Human), UniProt P50053)
# protocol.summary: KHK Biochemical Assay (IC50), ADP-Glo, KHK-C
# measurement.parameters: average of at least two separate assays
experimental.readout: IC50 (nM)

[P] C[C@H]1CCN1c1nc2c(c(-c3cccc(S(C)(=O)=O)c3)n1)CCC2
[Q] C[C@H]1[C@H](O)CN1c1nc(-c2ccc3c(c2)O[C@H](CO)CNC3=O)c2c(n1)C(F)(F)CC2
Select one. Lower IC50: P or Q Refer to your chosen entry by its label in the reply.
Q

[P] C[C@H]1CCN1c1nc2c(c(-c3ccc4c(c3)[nH]c(=O)n4C)n1)CCC2
[Q] C[C@H]1CCN1c1nc2c(c(-c3ccc4[nH]c(N)nc4c3)n1)CCC2
[R] C[C@H]1[C@H](O)CN1c1nc(-c2ccc([C@@H](N)C(F)F)cc2)c2c(n1)C(F)(F)CC2
[S] CC(C)(O)[C@H]1CCN1c1nc2c(c(-c3ccc(C(N)=O)cc3)n1)CCC2
Reorder: IC50, max to min. Arrange the labels as the request states and list them.
S, P, R, Q
(S: 2730 nM, P: 68.3 nM, R: 8 nM, Q: 5.2 nM)

[1] C[C@H]1CCN1c1nc2c(c(-c3ccc4[nH]nnc4c3)n1)CCC2
[2] C[C@H]1[C@H](O)CN1c1nc(-c2ccc3c(c2)CC[C@]32COCC(=O)N2)c2c(n1)C(F)(F)CC2 (single isomer, unassigned)
Select one. Lower IC50: 1 or 2 Refer to your chosen entry by its label in the reply.
2
(2: 5 nM, 1: 33.5 nM)

====

# target.or.system: human KHK-C (Homo sapiens (Human))
# protocol.summary: KHK Biochemical Assay (IC50), ADP-Glo, KHK-C
# measurement.parameters: average of at least two separate assays
experimental.readout: IC50 (nM)

Some entries whose results are on file:
molecule: COc1ccc(-c2nc(N3C[C@@H](F)[C@@H]3C)nc3c2CCC3(F)F)cc1[S@@](C)(=N)=O
unit.of.measure: nM
IC50: 1.1
--
molecule: C[C@H]1[C@H](O)CN1c1nc(-c2ccc3c(c2)CCC32COC(=O)N2)c2c(n1)C(F)(F)CC2 (stereo partly drawn)
unit.of.measure: nM
IC50: 1

[A] C[C@H]1CCN1c1nc(-c2ccc3c(c2)CCNC3)c2c(n1)C(F)(F)CC2
[B] C[C@H]1[C@H](O)CN1c1nc(-c2ccc(OC(F)F)c([S@](C)(=N)=O)c2)c2c(n1)C(F)(F)CC2 (single isomer, unassigned)
[C] C[C@@H]1N(c2nc(-c3ccc4c(c3)OC[C@@H]4NS(C)(=O)=O)c3c(n2)C(F)(F)CC3)C[C@@]1(C)O
Reorder: IC50, max to min. Arrange the labels as the request states and list them.
B, C, A

src = patent US12410160B2
